Form field: DR/DR AA (one value per entry).
test: Probe fluorescence ratio response to arachidonic acid relative to ADIFAB2; type: binding; settings: arachidonic acid; response relative to ADIFAB2

Reference set (3 entries):
23T1, 72A (protein, listed as Rattus norvegicus, PEPTIDE (1)...(131) wild-type rat intestinal fatty acid binding protein) AFDGTWKVDRNENYEKFMEKMGTNVVKRKLGAHDNLKLTITQEGNKFTVKESSNFRNIDVVFELGVDFAYSAADGTELTGTWTMEGNKLVGKFKRVDNGKELIAVREISGNELIQTYTYEGVEAKRIFKKE | 0.22
38S, 72A (protein, listed as Rattus norvegicus, PEPTIDE (1)...(131) wild-type rat intestinal fatty acid binding protein) AFDGTWKVDRNENYEKFMEKMGINVVKRKLGAHDNLKSTITQEGNKFTVKESSNFRNIDVVFELGVDFAYSAADGTELTGTWTMEGNKLVGKFKRVDNGKELIAVREISGNELIQTYTYEGVEAKRIFKKE | 1.175
106T2, 72A (protein, listed as Rattus norvegicus, PEPTIDE (1)...(131) wild-type rat intestinal fatty acid binding protein) AFDGTWKVDRNENYEKFMEKMGINVVKRKLGAHDNLKLTITQEGNKFTVKESSNFRNIDVVFELGVDFAYSAADGTELTGTWTMEGNKLVGKFKRVDNGKELIAVTEISGNELIQTYTYEGVEAKRIFKKE | 0.43

Q: Which DR/DR AA value belongs to 11I, 72A (protein, listed as Rattus norvegicus, PEPTIDE (1)...(131) wild-type rat intestinal fatty acid binding protein) AFDGTWKVDRIENYEKFMEKMGINVVKRKLGAHDNLKLTITQEGNKFTVKESSNFRNIDVVFELGVDFAYSAADGTELTGTWTMEGNKLVGKFKRVDNGKELIAVREISGNELIQTYTYEGVEAKRIFKKE ?
A: 0.584

Q: Which DR/DR AA value belongs to 106Y1, 72A (protein, listed as Rattus norvegicus, PEPTIDE (1)...(131) wild-type rat intestinal fatty acid binding protein) AFDGTWKVDRNENYEKFMEKMGINVVKRKLGAHDNLKLTITQEGNKFTVKESSNFRNIDVVFELGVDFAYSAADGTELTGTWTMEGNKLVGKFKRVDNGKELIAVYEISGNELIQTYTYEGVEAKRIFKKE ?
A: 0.57

Q: Which DR/DR AA value belongs to 31V2, 72A (protein, listed as Rattus norvegicus, PEPTIDE (1)...(131) wild-type rat intestinal fatty acid binding protein) AFDGTWKVDRNENYEKFMEKMGINVVKRKLVAHDNLKLTITQEGNKFTVKESSNFRNIDVVFELGVDFAYSAADGTELTGTWTMEGNKLVGKFKRVDNGKELIAVREISGNELIQTYTYEGVEAKRIFKKE ?
A: 0.40
